Source: PubChem BioAssay AID492956

I'd be grateful if you could share measured inhibition for these entries.
Biological target: Platelet-activating factor acetylhydrolase 2, cytoplasmic (Homo sapiens)
Test: inhibition of cytoplasmic PAF acetylhydrolase 2 – biochemical, fluorescence polarization, human, primary screen (AID 492956);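 note: inhibitors block probe labeling of enzyme so polarization drops; 0% = enzyme with DMSO and 100% = wells lacking PAFAH2 protein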
Details: recombinant PAFAH2, FP-rhodamine activity probe, at 3.39 µM, hits give high values
The whole screen tested about 340,000 compounds, of which about 3,300 (0.97%) were called active. Only a selection was taken, and actives are over-represented in it overall.
Your answer should be a plain number; it is taken to be in %.

Given the compound CCc1nnc(SCc2cccc(F)c2)nc1CC , what is its reported inhibition?
0.34

If you can, please state the reported inhibition value of Clc1ccc(CSc2nnc3c(n2)[nH]c2ccccc23)cc1 .
-12.8

Recorded inhibition for Cc1ccc(S(=O)(=O)N(C)C)cc1NC(=O)/C=C/c1cccs1 , please?
5.59

// lookup inhibition for CSc1ccc(S(=O)(=O)N2CCC(C(=O)NCc3ccncc3)CC2)cc1
0.67

Using the record for CN(C)S(=O)(=O)c1cccc(NC(=O)COC(=O)/C=C/c2cccs2)c1 , report its inhibition.
72.2

Consider the compound shown here: S=C(NCc1ccco1)NCc1ccccc1Cl What is its recorded inhibition?
2.25

Reported inhibition for CN(C)S(=O)(=O)c1cccc(NC(=O)COc2ccc3ccccc3c2)c1 : what is it?
-8.6

Requested read-out: inhibition. Entry: C/C=N/NC(=O)CCCC(=O)N/N=C/C
-3.09

Which inhibition value belongs to Cc1ccc(S(=O)(=O)N(C)C)cc1NC(=O)COC(=O)c1c(C)noc1C ?
-9.47

Which inhibition is listed for CN(C)S(=O)(=O)c1cccc(NC(=O)COC(=O)c2cc(=O)[nH]c(=O)[nH]2)c1 ?
0.25

// returns reported inhibition for input c1ccc(CSc2nnc(-c3ccco3)c(-c3ccco3)n2)cc1
57

###

Would you kindly list inhibition for each of these molecules?
Biological target: Platelet-activating factor acetylhydrolase 2, cytoplasmic (Homo sapiens) (UniProt Q99487)
Experiment: inhibition of cytoplasmic PAF acetylhydrolase 2 – biochemical, fluorescence polarization, human, primary screen (AID 492956);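 note: inhibitors block probe labeling of enzyme so polarization drops; 0% = enzyme with DMSO and 100% = wells lacking PAFAH2 protein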
Settings: recombinant PAFAH2, FP-rhodamine activity probe, at 3.39 µM, hits give high values
Screen size: about 340,000 compounds; about 3,300 (0.97%) were called active. For the sample, actives were picked, then their nearest neighbours and some compounds at random.

What value of inhibition has been recorded for this entry: CCN(CC)c1ccc(NC(=O)CN2C(=O)NC3(CCc4ccccc43)C2=O)cc1 (stereo not drawn)
-0.31% (inactive)

Give its inhibition value. Item: CC(=O)NC12CC3CC(C1)CC(C(=O)N1CCN(S(=O)(=O)c4cccs4)CC1)(C3)C2
17.5% (inactive)

Quick check: inhibition of COc1nc(N=C(N)N)nc2c(C)cccc12 ?
6.78% (inactive)

Fill blank: measured inhibition of the molecule O=C1C(=O)N(CCCO)C(c2ccccc2)/C1=C(\O)c1ccc(Br)cc1 (stereo not drawn) is ____.
2.68% (inactive)

Dear colleague, I am looking for the recorded inhibition of the following molecule: O=C(Nc1ccc(N2CCOCC2)cc1)c1ccc(-c2ccccc2[N+](=O)[O-])o1
-11.3% (inactive)

Give its inhibition value. Item: CCn1c(Cc2ccc(OC)cc2)nnc1SCC(=O)Nc1ccc(N2CCOCC2)cc1
-3.23% (inactive)

Bench note: what inhibition did COCCNC(=O)NC(=O)COC(=O)C1(c2ccc(Cl)cc2)CC1 show?
13% (inactive)

So what does the record say about inhibition for CSc1ncc(C(=O)NCCCc2ccccc2)c(C)n1 ?
-6.77% (inactive)

# inhibition lookup, item Cc1csc(NC(=O)CSc2ccc(-c3ccc(F)cc3)nn2)n1
1.11% (inactive)

I'd like to know its inhibition. The molecule in question is COc1ccc(C(C)C)cc1S(=O)(=O)Nc1ncn[nH]1
-3.51% (inactive)

For the molecule Cc1ccc2c(c1)C1CN(C)CCC1N2C(=S)Nc1ccc(Cl)cc1Cl (stereo not drawn) , what inhibition is on record?
8.44% (inactive)

Return reported inhibition; argument: Cc1nnc(NC(=O)CSc2nccn2-c2cccc(C)c2C)s1
6.92% (inactive)

Look up inhibition: CCOC(=O)C1=C(N)N(c2ccc(C)cc2)C2=C(C(=O)CCC2)C1c1cccs1 (stereo not drawn)
11% (inactive)

Query: inhibition; subject: O=C(NC(=O)c1ccccc1N1CCCCC1)Nc1ccc(Br)cc1
-2.91% (inactive)

Field request: inhibition | item: Cc1c2cn[nH]c(=O)c2c(C)n1Cc1ccc(F)cc1
-4.15% (inactive)

Form field: reported inhibition of C/C(=N\NC(=O)c1ccc(C)cc1)C1C(=O)c2ccccc2C1=O
14.8% (inactive)

What measured inhibition goes with CCOc1ccccc1OCC(=O)Nc1ccccc1C(=O)NC1CC1 ?
2.58% (inactive)

Bench note: what inhibition did C/C=C/C(=O)OCC(=O)Nc1ccc(F)cc1Cl show?
26% (inactive)

Consider the molecule shown here: CCOc1ncccc1C(=O)N(C)CC(=O)Nc1ccc(F)cc1 What is its recorded inhibition?
-4.72% (inactive)

Quick one: inhibition of Cc1ccc2c(c1)C1CN(C)CCC1N2S(=O)(=O)c1cccc(F)c1 (stereo not drawn) ?
4.06% (inactive)

Report inhibition for CC1CN(C(=O)c2ccc([N+](=O)[O-])s2)CC(C)O1 (stereo not drawn) please.
5.08% (inactive)

Which inhibition is reported for this molecule? Cn1nccc1NC(=O)CC(CC(=O)O)c1ccccc1 (stereo not drawn)
4.64% (inactive)

Given Cc1cc(OCCCC(=O)Nc2cc(S(=O)(=O)N3CCOCC3)ccc2N2CCOCC2)ccc1Cl , state its recorded inhibition.
8.81% (inactive)
